In this section we review reported Ki values for a set of molecules.
TARGET_DESC: HCV NS3 protease genotype 3a (3A-1) (Hepatitis C virus genotype 3a, UniProt Q81258)
ASSAY_NAME: HCV NS3 protease time-resolved fluorescence (TRF) assay, genotype 3a
Format: biochemical
REPORTED_CONDITIONS: Ki 3a
Text: The HCV NS3 protease inhibitory activity of the present compounds may be tested using assays known in the art. One such assay is HCV NS3 protease time-resolved fluorescence (TRF) assay as described below and in International Patent Application Publication No. WO2006/102087. […] Product fluorescence is detected using either a VICTOR V2 or FUSION fluorophotometer (Perkin Elmer Life and Analytical Sciences) with excitation at 340 nm and emission at 615 nm with a 400 μs delay. […]
Please respond with the number in nM and leave the unit unwritten.

C=C[C@@H]1C[C@]1(NC(=O)[C@@H]1C[C@@H]2CN1C(=O)[C@H](C(C)(C)C)NC(=O)O[C@@H]1C[C@H]1CCCCCc1c(nc3c(F)cccc3c1OCCn1ccnc1)O2)C(=O)NS(=O)(=O)C1(C)CC1 [Example 214]
1.2
C=C[C@@H]1C[C@]1(NC(=O)[C@@H]1C[C@@H]2CN1C(=O)[C@H](C(C)(C)C)NC(=O)O[C@@H]1C[C@H]1CCCCCc1c(nc3cc(C(C)C)ccc3c1OCCCNC(C)C)O2)C(=O)NS(=O)(=O)C1(C)CC1 [Example 160]
0.44
C=C[C@@H]1C[C@]1(NC(=O)[C@@H]1C[C@@H]2CN1C(=O)[C@H](C1CCCCC1)NC(=O)O[C@@H]1C[C@H]1CCCCCc1c(nc3ccccc3c1OCCCN1CC[C@@H](O)C1)O2)C(=O)NS(=O)(=O)C1(C)CC1 [Example 169]
0.75

// next item, Ki requested
Missing value: Ki, HCV NS3 protease genotype 3a (3A-1) (Hepatitis C virus genotype 3a, UniProt Q81258), entry C=C[C@@H]1C[C@]1(NC(=O)[C@@H]1C[C@@H]2CN1C(=O)[C@H](C(C)(C)C)NC(=O)O[C@@H]1C[C@H]1CCCCCc1c(nc3ccccc3c1OCCN1CC(O)C1)O2)C(=O)NS(=O)(=O)C1(C)CC1 [Example 174] . Fill in?
1.1

###

In this section we review reported pKi values for a set of molecules.
TARGET_DESC: HCV NS3 protease genotype 3a (3A-1) (Hepatitis C virus genotype 3a)
ASSAY_NAME: HCV NS3 protease time-resolved fluorescence (TRF) assay, genotype 3a
Format: biochemical
REPORTED_CONDITIONS: Ki 3a
Bear in mind: pKi is minus log10 of a mol/L concentration; give just that figure.

The cases that follow already have their pKi on record.
C=C[C@@H]1C[C@]1(NC(=O)[C@@H]1C[C@@H]2CN1C(=O)[C@H](C1CCCC1)NC(=O)O[C@@H]1CCC[C@H]1CC/C=C/Cc1c(nc3cccc(Cl)c3c1OC)O2)C(=O)NS(=O)(=O)C1CC1
7.96
C=C[C@@H]1C[C@]1(NC(=O)[C@@H]1C[C@@H]2CN1C(=O)[C@H](C(C)(C)C)NC(=O)O[C@@H]1CCC[C@H]1CCCCCc1c(nc3ccccc3c1OCCN1CCOCC1)O2)C(=O)NS(=O)(=O)C1(C)CC1
7.85
C=C[C@@H]1C[C@]1(NC(=O)[C@@H]1C[C@@H]2CN1C(=O)[C@H](C(C)(C)C)NC(=O)O[C@@H]1C[C@H]1CCCCCc1c(nc3ccccc3c1OCCCN1CC(O)(c3ccccc3)C1)O2)C(=O)NS(=O)(=O)C1(C)CC1
8.82
C=C[C@@H]1C[C@]1(NC(=O)[C@@H]1C[C@@H]2CN1C(=O)[C@H](C1CCCC1)NC(=O)O[C@@H]1CCC[C@H]1CC/C=C/Cc1c(nc3ccccc3c1OCCCNC(=O)OC(C)(C)C)O2)C(=O)NS(=O)(=O)C1CC1
8.14
C=C[C@@H]1C[C@]1(NC(=O)[C@@H]1C[C@@H]2CN1C(=O)[C@H](C1CCCCC1)NC(=O)O[C@@H]1C[C@H]1CCCCCc1c(nc3ccccc3c1OCCCN1CC(F)(F)C1)O2)C(=O)NS(=O)(=O)C1(C)CC1
8.12
C=C[C@@H]1C[C@]1(NC(=O)[C@@H]1C[C@@H]2CN1C(=O)[C@H](C(C)(C)C)NC(=O)O[C@@H]1C[C@H]1CCCCCc1c(nc3c(OC)cccc3c1OCCN1CCOCC1)O2)C(=O)NS(=O)(=O)C1(C)CC1
8.68
C=CC1C[C@]1(NC(=O)[C@@H]1C[C@@H]2CN1C(=O)[C@H](C1CCCC1)NC(=O)O[C@@H]1CCC[C@H]1CC/C=C/Cc1c(nc3ccccc3c1OCCCN(C)C)O2)C(=O)NS(=O)(=O)C1CC1 (stereo partly drawn)
9.14
C=C[C@@H]1C[C@]1(NC(=O)[C@@H]1C[C@@H]2CN1C(=O)[C@H](C1CCCC1)NC(=O)O[C@@H]1CCC[C@H]1CC/C=C/Cc1c(nc3ccccc3c1OCCCN1CCCC(F)(F)C1)O2)C(=O)NS(=O)(=O)C1(C)CC1
7.64

What does the data say about its pKi? Entry: C=CC1C[C@]1(NC(=O)[C@@H]1C[C@@H]2CN1C(=O)[C@H](C(C)(C)C)NC(=O)O[C@@H]1CCC[C@H]1CCCCCc1c(nc3ccccc3c1OCCN1CCOCC1)O2)C(=O)NS(=O)(=O)C1(COCCOC)CC1 (stereo partly drawn)
7.80
